subject of test: Blk(m) (Mus musculus, UniProt P16277)
Construct: purchased Upstate Biotechnology (Dundee, UK), KinaseProfiler service
Sequence (P16277 whole entry): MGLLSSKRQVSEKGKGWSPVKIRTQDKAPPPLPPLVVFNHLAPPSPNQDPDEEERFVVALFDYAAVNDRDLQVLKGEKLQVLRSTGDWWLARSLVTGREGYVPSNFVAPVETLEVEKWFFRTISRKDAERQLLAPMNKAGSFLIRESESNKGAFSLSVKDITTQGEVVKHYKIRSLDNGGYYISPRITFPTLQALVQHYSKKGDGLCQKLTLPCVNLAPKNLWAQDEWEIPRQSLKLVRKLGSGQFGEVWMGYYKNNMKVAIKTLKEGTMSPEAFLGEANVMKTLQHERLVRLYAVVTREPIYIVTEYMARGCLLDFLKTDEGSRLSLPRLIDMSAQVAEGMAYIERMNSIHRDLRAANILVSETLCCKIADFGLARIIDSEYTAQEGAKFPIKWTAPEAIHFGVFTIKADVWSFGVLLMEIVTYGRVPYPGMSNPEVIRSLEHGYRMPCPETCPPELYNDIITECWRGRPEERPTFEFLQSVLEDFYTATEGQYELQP
run description: Upstate KinaseProfiler enzyme assay, Blk
Assay type: biochemical
condition details: 500 nM compound; read-out: Percent inhibition at 500 nM Blk(m)
Field: inhibition at 0.5 µM. Provide a value for each of the compounds that follow.
Answers are plain numbers, in %.

Here is how some compounds turned out for inhibition at 0.5 µM.
C=CC(=O)N(C)c1ccc(Sc2nc(Nc3ccc(N4CCOCC4)cc3)ncc2C)cc1 ... 93
N#Cc1nnn(Cc2ccc(Sc3ccnc(Nc4ccc(N5CCOCC5)cc4)n3)cc2)n1 ... 41
C=CC(=O)Nc1cccc(Sc2ccnc(Nc3ccc(OC)cc3)n2)c1 ... 100
C=CC(=O)Nc1ccc(Sc2nc(Nc3cccc(N4CCOCC4)c3)ncc2C)cc1 ... 96
C=CC(=O)Nc1ccc(Sc2nc(Nc3ccc(N4CCOCC4)cc3)ncc2-c2ccccc2)cc1 ... 0
CC#CC(=O)Nc1ccc(Sc2nc(Nc3ccc(N4CCOCC4)cc3)ncc2C)cc1 ... 100
C=CC(=O)Nc1ccc(Sc2nc(Nc3ccc(C4CCN(C)CC4)cc3)ncc2C)cc1 ... 97
C=CC(=O)Nc1cccc(Sc2ccnc(Nc3ccc(N4CCOCC4)cc3)n2)c1 ... 97

Below are 8 compounds. Give each one its inhibition at 0.5 µM.
1. CC#CC(=O)Nc1ccc(Sc2ccnc(Nc3ccc(N4CCOCC4)cc3)n2)cc1
2. C=CC(=O)Nc1ccc(Sc2ccnc(Nc3ccc(N4CCS(=O)(=O)CC4)cc3)n2)cc1
3. C=CC(=O)Nc1ccc(Sc2ccnc(Nc3ccccc3)n2)cc1
4. C=CC(=O)Nc1ccc(Sc2ccnc(Nc3cccc(S(N)(=O)=O)c3)n2)cc1
5. C=CC(=O)Nc1ccc(Sc2ccnc(Nc3cccc(N4CCOCC4)c3)n2)cc1
6. C=CC(=O)Nc1ccc(Sc2nc(Nc3ccc(OCCN4CCOCC4)cc3)ncc2C)cc1
7. C=CC(=O)Nc1ccc(Sc2ccnc(Nc3ccc(C#N)cc3)n2)cc1
8. C=CC(=O)Nc1ccc(Sc2nc(Nc3ccc(OCCCN(CC)CC)cc3)ncc2C)cc1

Result:
[30, 100, 100, 81, 100, 97, 100, 99]

Task: Name the recorded inhibition at 0.5 µM for O=C(CCNc1ccccc1)Nc1ccc(Sc2ccnc(Nc3ccccc3)n2)cc1 .
Result: 100

====

Field: pIC50. Provide a value for each of the compounds that follow.
subject of test: human JAK3 (Homo sapiens)
Construct: The kinase domain of human JAK3 was amplified; GST (N); made in house; host or cells: Sf9 insect cells (baculovirus)
Sequence (P52333 822-1111 limits assumed): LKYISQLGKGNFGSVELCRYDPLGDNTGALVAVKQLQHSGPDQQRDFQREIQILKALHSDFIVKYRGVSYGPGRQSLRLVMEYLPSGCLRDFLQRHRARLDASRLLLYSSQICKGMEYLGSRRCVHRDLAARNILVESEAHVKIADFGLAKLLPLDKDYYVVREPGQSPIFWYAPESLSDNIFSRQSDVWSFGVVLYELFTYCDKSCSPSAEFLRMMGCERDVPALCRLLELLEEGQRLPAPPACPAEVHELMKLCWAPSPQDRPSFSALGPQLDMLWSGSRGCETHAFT
run description: Alphascreen tyrosine kinase enzyme assay, JAK3 kinase domain
Type: biochemical
condition details: read-out: JAK3 IC50_nM
pIC50: −log10 of the molar value.

Here is how some compounds turned out for pIC50.
C=CC(=O)Nc1ccc(Sc2nc(Nc3ccc(N4CCOCC4)cc3)ncc2C)c(Cl)c1C [Compound 171] ... > 7.00
C=CC(=O)Nc1ccc(Sc2ccnc(Nc3ccccc3O)n2)cc1 [Compound 279] ... > 7.00
C=CC(=O)Nc1ccc(Sc2ccnc(Nc3ccccc3)n2)cc1 [Compound 350] ... > 7.00
C=CC(=O)N(C)c1ccc(Sc2nc(Nc3ccc(N4CCOCC4)cc3)ncc2Br)cc1 [Compound 261] ... > 7.00
CCOC(=O)c1nccn1Cc1ccc(Sc2ccnc(Nc3ccc(N4CCOCC4)cc3)n2)cc1 [Compound 148] ... > 6.30
C=CC(=O)Nc1ccc(Sc2ccnc(Nc3ccc(F)c(C#N)c3)n2)cc1 [Compound 354] ... > 7.00
C=CC(=O)Nc1ccc(Sc2ccnc(Nc3cccc(C#N)c3)n2)cc1 [Compound 118] ... > 7.00
C=CC(=O)Nc1ccc(Sc2nc(Nc3ccc(NS(C)(=O)=O)cc3)ncc2C)cc1 [Compound 285] ... > 7.00

Below are 8 compounds. Give each one its pIC50.
1. C=CC(=O)Nc1ccc(Sc2nc(Nc3ccc(N4CCOCC4)cc3)ncc2-c2ccccc2)cc1 [Compound 307]
2. C=CC(=O)Nc1ccc(Sc2ccnc(Nc3ccc4c(c3)OCO4)n2)cc1 [Compound 393]
3. Cc1cnc(Nc2ccc(N3CCOCC3)cc2)nc1Sc1cccc(CO)c1 [Compound 212]
4. Cc1cnc(Nc2cccc(O)c2)nc1Sc1ccc(NC(=O)CCl)cc1 [Compound 194]
5. C=CC(=O)Nc1ccc(Sc2ccnc(Nc3cccc(O)c3)n2)cc1 [Compound 277]
6. N#CCc1ccc(Sc2ccnc(Nc3ccc(N4CCOCC4)cc3)n2)cc1 [Compound 210]
7. NC(=O)c1nccn1Cc1ccc(Sc2ccnc(Nc3ccc(N4CCOCC4)cc3)n2)cc1 [Compound 149]
8. Cc1cnc(Nc2ccc(N3CCOCC3)cc2)nc1Sc1ccc(NC(=O)CO)cc1 [Compound 229]

Result:
1. > 7.00
2. > 7.00
3. > 6.30
4. > 7.00
5. > 7.00
6. > 6.30
7. > 6.30
8. > 6.30

Below are 7 compounds. Give each one its pIC50.
1. CC(=O)Nc1ccc(Sc2ccnc(Nc3ccc(N4CCC(N5CCCC5)CC4)cc3)n2)cc1 [Compound 86]
2. COc1cc(Sc2ccnc(Nc3ccc(N4CCOCC4)cc3)n2)ccc1N [Compound 117]
3. C=CC(=O)Nc1ccc(Sc2nc(Nc3cccc(N4CCOCC4)c3)ncc2I)cc1 [Compound 269]
4. N#Cc1nnn(Cc2ccc(Sc3ccnc(Nc4ccc(N5CCOCC5)cc4)n3)cc2)n1 [Compound 156]
5. CCC(=O)Nc1ccc(Sc2nc(Nc3ccc(N4CCOCC4)cc3)ncc2Cl)cc1 [Compound 347]
6. CC#CC(=O)Nc1ccc(Sc2ccnc(Nc3cccc(N4CCOCC4)c3)n2)cc1 [Compound 233]
7. Cc1cnc(Nc2ccc(N3CCOCC3)cc2)nc1Sc1ccc(N)c(C)c1Cl [Compound 169]

Result:
1. > 6.30
2. > 6.30
3. > 7.00
4. > 7.00
5. > 7.00
6. > 7.00
7. > 7.00

====

Field: inhibition at 0.5 µM. Provide a value for each of the compounds that follow.
subject of test: KDR(h) (Homo sapiens)
Construct: purchased Upstate Biotechnology (Dundee, UK), KinaseProfiler service
Sequence (P35968 20-1356): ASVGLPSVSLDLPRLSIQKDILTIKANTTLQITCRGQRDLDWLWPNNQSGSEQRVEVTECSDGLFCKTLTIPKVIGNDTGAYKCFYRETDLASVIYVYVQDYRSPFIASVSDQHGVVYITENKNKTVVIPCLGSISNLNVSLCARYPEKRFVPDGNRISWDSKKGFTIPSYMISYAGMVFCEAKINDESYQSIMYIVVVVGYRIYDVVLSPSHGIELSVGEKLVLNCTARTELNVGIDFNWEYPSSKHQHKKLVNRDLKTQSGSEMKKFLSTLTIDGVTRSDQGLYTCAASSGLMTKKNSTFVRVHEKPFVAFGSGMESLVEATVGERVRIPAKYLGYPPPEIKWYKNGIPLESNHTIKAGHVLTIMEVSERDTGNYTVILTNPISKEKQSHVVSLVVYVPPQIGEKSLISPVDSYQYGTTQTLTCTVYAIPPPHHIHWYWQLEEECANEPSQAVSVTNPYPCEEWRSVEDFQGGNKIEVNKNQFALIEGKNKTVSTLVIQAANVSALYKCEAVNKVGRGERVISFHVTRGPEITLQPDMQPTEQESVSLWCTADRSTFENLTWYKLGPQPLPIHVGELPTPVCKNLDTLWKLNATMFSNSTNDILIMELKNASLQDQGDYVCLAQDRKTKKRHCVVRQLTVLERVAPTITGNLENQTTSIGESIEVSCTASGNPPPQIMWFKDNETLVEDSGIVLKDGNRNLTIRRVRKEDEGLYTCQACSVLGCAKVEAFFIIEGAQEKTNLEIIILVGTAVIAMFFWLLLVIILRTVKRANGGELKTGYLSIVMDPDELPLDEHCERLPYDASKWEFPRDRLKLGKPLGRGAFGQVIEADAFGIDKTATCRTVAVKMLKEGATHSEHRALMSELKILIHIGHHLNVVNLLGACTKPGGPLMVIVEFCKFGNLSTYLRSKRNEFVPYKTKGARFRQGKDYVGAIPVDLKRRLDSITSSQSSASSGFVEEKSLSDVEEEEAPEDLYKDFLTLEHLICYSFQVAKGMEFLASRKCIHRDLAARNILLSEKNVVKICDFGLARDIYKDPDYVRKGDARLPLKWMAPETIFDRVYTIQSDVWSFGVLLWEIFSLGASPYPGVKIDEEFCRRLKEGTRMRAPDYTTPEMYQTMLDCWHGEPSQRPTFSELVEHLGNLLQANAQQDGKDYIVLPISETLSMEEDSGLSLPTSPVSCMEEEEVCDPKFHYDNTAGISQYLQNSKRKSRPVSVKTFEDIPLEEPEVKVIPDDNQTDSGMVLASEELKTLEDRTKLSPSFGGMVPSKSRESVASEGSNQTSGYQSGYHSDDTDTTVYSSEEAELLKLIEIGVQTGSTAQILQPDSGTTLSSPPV
run description: Upstate KinaseProfiler enzyme assay, KDR
Assay type: biochemical
condition details: 500 nM compound; read-out: Percent inhibition at 500 nM KDR(h)
Give bare numbers, in %.

Here is how some compounds turned out for inhibition at 0.5 µM.
C=CC(=O)Nc1cccc(Sc2ccnc(Nc3cccc(N4CCOCC4)c3)n2)c1 ... 100
C=CC(=O)Nc1ccc(Sc2nc(Nc3ccc(OC)c(OC)c3)ncc2C)cc1 ... 97
C=CC(=O)Nc1ccc(Sc2nc(Nc3cccc(N4CCN(C)CC4)c3)ncc2C)cc1 ... 97
C=CC(=O)Nc1ccc(Sc2ccnc(Nc3ccc(C(=O)OC)cc3)n2)cc1 ... 95
C=CC(=O)Nc1ccc(Sc2nc(Nc3ccc(N4CCC(C(=O)OCC)CC4)cc3)ncc2C)cc1 ... 96

Below are 3 compounds. Give each one its inhibition at 0.5 µM.
1. C=CC(=O)NCc1ccc(Sc2ccnc(Nc3ccc(N4CCOCC4)cc3)n2)cc1
2. C=CC(=O)Nc1ccc(Sc2nc(Nc3ccc(OCCCN(CC)CC)cc3)ncc2C)cc1
3. C=CC(=O)Nc1ccc(Sc2nc(Nc3ccc(OC)c(NS(C)(=O)=O)c3)ncc2C)cc1

Result:
100
96
95

Below are 8 compounds. Give each one its inhibition at 0.5 µM.
1. C=CC(=O)Nc1ccc(Sc2ccnc(Nc3ccc(N4CCOCC4)cc3)n2)cc1OC
2. Cc1cc(N)ccc1Sc1nc(Nc2ccc(N3CCOCC3)cc2)ncc1C
3. C=CC(=O)N(C)c1ccc(Sc2nc(Nc3ccc(N4CCOCC4)cc3)ncc2C)cc1
4. C=CC(=O)Nc1cccc(Sc2ccnc(Nc3cc(OC)c(OC)c(OC)c3)n2)c1
5. C=CC(=O)Nc1ccc(Sc2ccnc(Nc3ccc(OC)cc3)n2)cc1
6. O=C(/C=C/Cl)Nc1cccc(Sc2ccnc(Nc3ccc(N4CCOCC4)cc3)n2)c1
7. C=CC(=O)Nc1ccc(Sc2ccnc(Nc3ccc(OC)c(O)c3)n2)cc1
8. C=CC(=O)Nc1ccc(Sc2ccnc(Nc3ccc(S(N)(=O)=O)c(OC)c3)n2)cc1

Result:
1. 100
2. 95
3. 96
4. 100
5. 100
6. 94
7. 100
8. 96

====

subject of test: human JAK3 (Homo sapiens)
experimental readout: IC50

Cc1cnc(Nc2ccc(N3CCOCC3)cc2)nc1Sc1ccc(C#N)cc1 [Compound 136] ... < 500 nM
C=CC(=O)N(C)c1ccc(Sc2ccnc(Nc3ccc(N4CCOCC4)cc3)n2)cc1 [Compound 91] ... < 100 nM
C=CC(=O)Nc1cccc(Sc2ccnc(Nc3ccc(N4CCOCC4)cc3)n2)c1 [Compound 23] ... < 100 nM
C=CC(=O)Nc1ccc(Sc2nc(Nc3ccc4c(c3)OCO4)ncc2C)cc1 [Compound 284] ... < 100 nM
N#Cc1ncn(Cc2ccc(Sc3ccnc(Nc4ccc(N5CCOCC5)cc4)n3)cc2)c1C#N [Compound 201] ... < 100 nM
C=CC(=O)Nc1ccc(Sc2ccnc(Nc3cccc(S(=O)(=O)N4CCN(C)CC4)c3)n2)cc1 [Compound 365] ... < 100 nM
C=CC(=O)Nc1ccc(Sc2nc(Nc3ccc(N4CCN(C)CC4)c(OC)c3)ncc2C)cc1 [Compound 249] ... < 100 nM
C=CC(=O)Nc1ccc(Sc2ccnc(Nc3cccc(CO)c3)n2)cc1 [Compound 278] ... < 100 nM

Below are 7 molecules. Give each one its IC50.
1. C=CC(=O)Nc1ccc(Sc2nc(Nc3ccc(OC)c(OC)c3)ncc2C)cc1 [Compound 241]
2. Cc1cnc(Nc2ccc(N3CCOCC3)cc2)nc1Sc1ccc(CC#N)cc1 [Compound 222]
3. Cc1cnc(Nc2ccc(N3CCOCC3)cc2)nc1Sc1ccc(N2CCSCC2=O)cc1 [Compound 197]
4. N#Cc1nnnn1Cc1ccc(Sc2ccnc(Nc3ccc(N4CCOCC4)cc3)n2)cc1 [Compound 155]
5. Nc1ccc(Sc2nc(Nc3cccc(N4CCOCC4)c3)ncc2I)cc1 [Compound 264]
6. Cc1cnc(Nc2ccc(N3CCOCC3)cc2)nc1Sc1ccc(NC2CCOC2=O)cc1 (centres unmarked) [Compound 228]
7. C=CC(=O)Nc1ccc(Sc2nc(Nc3ccc(N4CCOCC4)nc3)ncc2C)cc1 [Compound 254]

Result:
< 100 nM
< 500 nM
< 100 nM
< 100 nM
< 500 nM
< 100 nM
< 100 nM

Below are 2 molecules. Give each one its IC50.
1. CC#CC(=O)Nc1ccc(Sc2nc(Nc3ccc(N4CCOCC4)cc3)ncc2C)cc1 [Compound 125]
2. Cc1cnc(Nc2cccc(N3CCN(C)CC3)c2)nc1Sc1ccc(N)cc1 [Compound 245]

Result:
< 100 nM
< 500 nM

Entry source: patent US8846704B2
